Attribution: ChEMBL document CHEMBL1153912

System: HFL1
Measurement Description: Induction of glycosaminoglycan synthesis priming in human HFL1 cells assessed as ratio of fractions containing free glycosaminoglycan chains in drug to untreated control; further: test concentration or dose not given here
Assay type: cell-based
Endpoint: Ratio
Respond with the number and no other words.

Request: Write down the reported Ratio of CC(=O)Oc1ccc2ccc(O[C@@H]3OC[C@@H](OC(C)=O)[C@H](OC(C)=O)[C@H]3OC(C)=O)cc2c1 , test system: HFL1.
Result: 2.2

Request: Find the measured Ratio: item CC(=O)O[C@@H]1[C@@H](OC(C)=O)[C@H](Oc2cccc3cccc(O[C@@H]4OC[C@@H](OC(C)=O)[C@H](OC(C)=O)[C@H]4OC(C)=O)c23)OC[C@H]1OC(C)=O , target or system HFL1.
Result: 2.4

Request: Request - read-out Ratio | tested on HFL1 | compound CC(=O)O[C@@H]1[C@@H](OC(C)=O)[C@H](Oc2cc3ccccc3cc2O[C@@H]2OC[C@@H](OC(C)=O)[C@H](OC(C)=O)[C@H]2OC(C)=O)OC[C@H]1OC(C)=O
Result: 2.8

Request: So what Ratio did CC(=O)O[C@@H]1[C@@H](OC(C)=O)[C@H](Oc2ccc3c(O[C@@H]4OC[C@@H](OC(C)=O)[C@H](OC(C)=O)[C@H]4OC(C)=O)cccc3c2)OC[C@H]1OC(C)=O get with HFL1?
Result: 12.7

Request: // map CC(=O)Oc1ccc2cc(O[C@@H]3OC[C@@H](OC(C)=O)[C@H](OC(C)=O)[C@H]3OC(C)=O)ccc2c1 to recorded Ratio (system: HFL1)
Result: 2.5

Request: Which measured Ratio belongs to CC(=O)Oc1cccc2ccc(O[C@@H]3OC[C@@H](OC(C)=O)[C@H](OC(C)=O)[C@H]3OC(C)=O)cc12 , tested on HFL1?
Result: 2.1
